Test system: Liver
Assay: Intrinsic clearance in CD1 mouse liver microsomes after 0.5 to 4 hrs by UPLC-MS analysis
Type: ADME, Microsome
Parameter measured: Intrinsic clearance (CLint) (µL/min/mg)
// note: answer is a bare numeric in µL/min/mg

Worked examples follow.
COc1cc2[nH]c(-c3cccc(Oc4ccccc4)c3)c(C(=O)OCCCN3CCOCC3)c(=O)c2cc1F :: 24
CCCOc1cccc(-c2[nH]c3cc(OC)ccc3c(=O)c2C(=O)OCC)c1 :: 39

Field: next compound
Dear colleague, I am looking for the recorded Intrinsic clearance (CLint) of the following compound: `COc1cc2[nH]c(-c3cccc(Oc4ccccc4)c3)c(C(=O)OCCO)c(=O)c2cc1F`
11
